Tested on: planktonic S. aureus clinical strains (UAMS-1, 103-700)
Method: MIC by CLSI broth microdilution, planktonic bacteria
Type: cell-based, Staphylococcus aureus
Experimental parameters: Staphylococcus aureus, 18 h; S. aureus 103-700; agents marked * in combination with equimolar 5 mM D-AA; read-out: Planktonic (MIC) 103-700
Measure name: MIC (µg/mL)
Answers are plain numbers, in µg/mL.

Fill in MIC for each of the 4 molecules listed.
1. Cc1onc(-c2ccccc2)c1C(=O)N[C@@H]1C(=O)N2[C@@H]1SC(C)(C)[C@@H]2C(=O)O
2. Cc1nnc(SCC2=C(C(=O)O)N3C(=O)[C@@H](NC(=O)Cn4cnnn4)[C@H]3SC2)s1
3. CO[C@H]1/C=C/O[C@@]2(C)Oc3c(C)c(O)c4c(O)c(c(/C=N/N5CCN(C)CC5)c(O)c4c3C2=O)NC(=O)/C(C)=C\C=C\[C@H](C)[C@H](O)[C@@H](C)[C@@H](O)[C@@H](C)[C@H](OC(C)=O)[C@@H]1C
4. CCC[C@@H]1C[C@@H](C(=O)N[C@@H]([C@H]2O[C@H](SC)[C@H](O)[C@@H](O)[C@H]2O)[C@H](C)Cl)N(C)C1

stdout:
[8, 16, 0.5, 0.5]

###

Hi there, I'd appreciate the recorded Biofilm (MBIC) 103-700 for every entry that follows.
System: biofilm derived S. aureus clinical strains (UAMS-1, 103-700)
Method: Biofilm susceptibility, Calgary Biofilm device (MBEC plates): MBIC and viable CFU
Assay type: cell-based, Staphylococcus aureus
Experimental parameters: S. aureus 103-700 48 h biofilm, 24 h challenge; * = with 5 mM D-AA

CCC[C@@H]1C[C@@H](C(=O)N[C@@H]([C@H]2O[C@H](SC)[C@H](O)[C@@H](O)[C@H]2O)[C@H](C)Cl)N(C)C1 >64 µg/mL
CO[C@H]1/C=C/O[C@@]2(C)Oc3c(C)c(O)c4c(O)c(c(/C=N/N5CCN(C)CC5)c(O)c4c3C2=O)NC(=O)/C(C)=C\C=C\[C@H](C)[C@H](O)[C@@H](C)[C@@H](O)[C@@H](C)[C@H](OC(C)=O)[C@@H]1C 32 µg/mL

I would be grateful if you could provide Biofilm (MBIC) 103-700 for each of the following entries.
1. Cc1onc(-c2ccccc2)c1C(=O)N[C@@H]1C(=O)N2[C@@H]1SC(C)(C)[C@@H]2C(=O)O
2. CN[C@H](CC(C)C)C(=O)N[C@H]1C(=O)N[C@@H](CC(N)=O)C(=O)N[C@H]2C(=O)N[C@H]3C(=O)N[C@H](C(=O)N[C@H](C(=O)O)c4cc(O)cc(O)c4-c4cc3ccc4O)[C@H](O)c3ccc(c(Cl)c3)Oc3cc2cc(c3O[C@@H]2O[C@H](CO)[C@@H](O)[C@H](O)[C@H]2O[C@H]2C[C@](C)(N)[C@H](O)[C@H](C)O2)Oc2ccc(cc2Cl)[C@H]1O

stdout:
1. >64 µg/mL
2. >64 µg/mL

stdin: Find the measured Biofilm (MBIC) 103-700 of Cc1nnc(SCC2=C(C(=O)O)N3C(=O)[C@@H](NC(=O)Cn4cnnn4)[C@H]3SC2)s1 with biofilm derived S. aureus clinical strains (UAMS-1, 103-700) as test system.
stdout: >128 µg/mL
